- Tested on: HOP-62 NSCLC
- method: NCI-60 one-dose screen, 48 h
- experimental.conditions: 10 µM unless noted
Compounds without any hit were thinned out: in the full panel of roughly 83,000, 20% have a hit. Active and inactive are the calls of the source. How the source made its calls: active means growth percent below 10; inactive means the rest.
Permitted responses: active, inactive

Check out these entries, answers already filled in.
molecule=CSc1ccc(/C(=N/N=C(N)N)c2ccc(F)cc2)cc1 class=inactive
molecule=Cc1ccc(NC(=O)Nc2nc3ccc([N+](=O)[O-])cc3s2)cc1 class=active
molecule=Cc1ccc(-c2nc(SCC(=O)c3ccccc3)nc(Nc3ccc(S(N)(=O)=O)cc3)c2C#N)cc1 class=inactive

Recorded test call requested for COc1cccc2c1[C@H](OC)[C@]13O[C@@]1(C2=O)[C@H](O)[C@H](C)[C@@](O)(C(=O)[C@@H]1O[C@H]1C)[C@@H]3O
active

Recorded test outcome, item CS(=O)(=O)c1ccc(/C(=N/N=C(N)N)c2ccc(F)cc2)cc1
inactive

What is the recorded call for this molecule in the test? C#C[C@]1(O)CC[C@H]2[C@@H]3CC=C4c5sc(N(C)c6ccccc6)nc5CC[C@]4(C)[C@H]3CC[C@@]21C
inactive

So what was the verdict on Nn1c(=O)n(-c2cccc(C(F)(F)F)c2)c(=O)c2cc(-c3ccc(F)cc3F)ccc21 in this test?
active

Hi, do you know how C[C@H](Nc1ncnc2ccc(-c3cnc(Cl)c(NS(C)(=O)=O)c3)cc12)c1ccccc1 came out in this test?
active

Look up the recorded call for O=C1C(SCc2ccccc2)=C(Cl)CN1c1ccccc1 in this test.
inactive
